Some sequences, each annotated with its measured protein stability index.
# ASSAY_INFO: protein stability index of a GFP-peptide fusion (GPS, HEK-293T) (PSI 1-6); higher = more stable;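 note: 24-mer peptide tiles fused after GFP, lentivirally expressed, FACS-sorted into six equal bins by GFP/DsRed ratio, decoded by Illumina sequencing, PSI is the read-weighted mean bin number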
# MEASUREMENT_CONTEXT: treatment: DMSO; c terminus: a fixed tail appended

SEQUENCE_STRING | protein stability index
KKMSCQQFIANLDQLNDGQDFAKD [PSD2] | 4.41
YHLEKQTALLGGPRRCHSAPPQGS [PLEKHN1] | 3.28
KRLCGLKVEVDMEKIAAEIAQAEE [SMARCE1] | 2.25
PDGGGPWLEDEPGRGAQGENERVR [ZSWIM9] | 5.41
RLSTSPVRLAARQEDAPMIEPLVP [EPB41L3] | 4.6
FDVETRHVFIGDHSGQVTILKLEQ [WDFY2] | 2.2
SRSQNTDMVQKSVSKTLPSTWSDP [CLINT1] | 3.87
YTFLYLVCISTKTQCSEEDQCKIN [FEM1B] | 2.65
TVEERQTGMWWRHLVAGGGAGAVS [SLC25A25] | 2.98
QLGTLAGSKYYNVEAMYCYLRCIQ [SMG5] | 2.68
YRQPIPVQELVLEDLQDGDVRMGG [NET1] | 4.4
LEQPFLSVFKKGRRRVPVRNLGKV [PLEKHN1] | 3.19
NCPAHWLAQDWERCNTTCGRGVKK [ADAMTSL2] | 4.16
NHIGMGVRYNAEKKKVGNYYTTPI [YJU2B] | 3.03
SFLFLGCSHSFLLAVMGYDRYIAI [OR10K2] | 3.14
LQKDEYRPDKALSEGDLKNAIRVH [PSD2] | 4.56
GFSCDGTANTFRVMFKEPIEILPN [BTBD1] | 2.6
MNVMLKSSPVDLVTATDQKVEKML [IMPA1] | 3.83
AVYFAEADDPTSGFSSIPDAFWWA [KCNA3] | 2
IRGPAGNNDCRIYVGNLPPDIRTK [SRSF1] | 3.43
EGPKRELGVRRPGGAGKEGVRVNN [TCF25] | 4.7
DWGTPRELTFSYIAFDGVVGSGGR [RTN2] | 1.91
FMHENLYFTNRKVNSVCWASLNHL [DCAF4] | 2.69
ETLEGREKAFIAHFQDNLHSVNRD [MED27] | 4.32
TGESKEQVANSAFVERVRKRGFEV [HSP90AB1] | 4.18
QLSELRSEMECQNQEYKMLLDIKT [KRT13] | 4.09
LVYVAAFSIGLGPMPWLVLSEIFP [SLC2A12] | 3.22

---

# ASSAY_INFO: protein stability index of a GFP-peptide fusion (GPS, HEK-293T) (PSI 1-6); higher = more stable
# MEASUREMENT_CONTEXT: treatment: DMSO; c terminus: a fixed tail appended
Some sequences, each annotated with its measured protein stability index.
QUANTITY_KIND: protein stability index

SEQUENCE_STRING | QUANTITY_KIND | MEASURED_RESULT
AGVSLSTLEELLPPNTRVLRVLPN [PYCR3] | protein stability index | 2.79
SLKVKFFDLERENACATKEQKNHT [PLD5] | protein stability index | 4
LNGTKVAEGHKASFCLEDTECEGD [LOXL2] | protein stability index | 5.41
VARILIDLCSDVNVCSLLAQTPLH [RIPK4] | protein stability index | 2.65
PLIIAARNGHAKVVRLLLEHYRVQ [FEM1B] | protein stability index | 2.36
YTGPSSSGRFAGREWYYGNVTRHQ [NCK2] | protein stability index | 2.35
PAAGRELPPDMTVVPGDHLLEPEV [KCNA3] | protein stability index | 5.3

---

# ASSAY_INFO: protein stability index of a GFP-peptide fusion (GPS, HEK-293T) (PSI 1-6); higher = more stable
# MEASUREMENT_CONTEXT: treatment: MLN4924 1 uM, 8 h; c terminus: a fixed tail appended
Some sequences, each annotated with its measured protein stability index.

SEQUENCE_STRING | protein stability index
TNKFYMLDSRSTDRVLQWERIDCQ [KLHDC2] | 2.8
ARRRQSAGPWPRPKGSLSMGPAPR [RASAL3] | 4.03
QIEYEYKLAQALHEMREQHDAQVR [LMNB1] | 3.83
DARQLFVLAGAAEEGFMTAELAGV [GNAI1] | 2.92
TSRTQVYKPPALKKSNSPGTASSG [ZC2HC1A] | 4.46
KDLFEEKIKKSPLTICYPEYAGSN [GNAI1] | 4.09
CFKSVAKTPYDTSRRQEKSAGDAD [ELOA2] | 5
HFSQSLTVIHDFLFSLKESPEKFQ [FAF2] | 2.44
VSHVGWDPQNGFDVNNLDPDLRSL [WAS] | 3.98
LILSREASWAKPHYEFNLSRMKFR [LCOR] | 2.11
PRGKPPLNTRSQAPLLRWVLTLSF [HMOX1] | 3.1
QESYENVDSLESHIPSQEVPGTQV [ZNF263] | 5.28
DTNSIAKAIKARGEVIHCKLRAMK [STX11] | 2.89

---

# ASSAY_INFO: protein stability index of a GFP-peptide fusion (GPS, HEK-293T) (PSI 1-6); higher = more stable
# MEASUREMENT_CONTEXT: treatment: MLN4924 1 uM, 8 h; c terminus: a fixed tail appended
Label 0.0 if protein stability index falls below 3; label 1.0 in every other case.

SEQUENCE_STRING | CLASSIFICATION
VKTKKNAPSATIHQGEEEGPLDIW [FBXO34] | 1.0
GDWHSPTLIREKSFGACLREETPR [ELOA2] | 1.0
CVRRRYSDFEWLKNELERDSKIVV [SNX12] | 0.0
ELARIVLLRHGMDRLWRPSKVLSL [RAB40B] | 0.0
FLGETKQETLTNISAVNYDFDEEY [DAPK3] | 1.0
YHLEKQTALLGGPRRCHSAPPQGS [PLEKHN1] | 1.0
GTSHGAPPARGPRMSYGGSTCHAY [RBMY1A1] | 1.0
VITALKCHKYDRNIQVTGSAALFY [ZER1] | 0.0
CCVDVKPISQEKIESERALISQCG [DUSP5] | 1.0
ARLKRSQSFGVASASSIKQILLEW [SMTNL2] | 0.0
TFFEVSPLCNFNIIESFTELARIV [RAB40A] | 0.0
GSDSVIMTGAYNNFFRMFDRNTKR [PPP2R2C] | 1.0
KSKASFLLLASGLVITDFFGHLIN [PTGFR] | 0.0
YNWEEERATNHLDQVPSMQDGSES [SPAG8] | 1.0
IAMAVYTYLRLIVDHHGTAQLQAL [INTS3] | 1.0
AASLVTMGIVNLNIHMNFTHICRS [SLC2A12] | 1.0
SFANDRENYDIIKTYHYLYLAMLE [FEM1B] | 0.0
EQYDLATKRVRQLLDLDPEVECLK [GOLPH3] | 1.0
EKLIQERSQQQEPLLCPSYQSYFK [KRT34] | 1.0
MDGQTDFWRDWEDYAHGFGNISGE [TNXB] | 1.0
SLGYGTNVAATGISQYEDDLPPPP [APBB1IP] | 1.0
RSRIEEQSQLICILKRRSDEALER [CCDC89] | 1.0
FICKECGKAYGWCSELIRHRRVHA [ZNF232] | 1.0
SQSSTYRGTYEQDGRFEKRQGNPS [ZNF396] | 1.0
ADFGRLVNLQHLDLLNNKLVTLPV [LRRC59] | 0.0
AGVSLSTLEELLPPNTRVLRVLPN [PYCR3] | 0.0
LHALKLRSPDASPSRAPPSTQEPQ [GNAS] | 1.0
MNMLWSRMLKDNKKNWRRVYKSLL [CLINT1] | 0.0
ERCFRGSSYPVCVSKVVKGGSSGK [OAS1] | 1.0
LFDTKHDVYSFAIVIWGVLTQKKP [RIPK4] | 0.0
LRTTVHHAFPVVTENRGNEKEFMK [CLCN6] | 1.0
ELEEDDGHGAEQAAAFPTEDSRTS [EHMT1] | 1.0
DCLKKFNARRKLKGAILTTMLATR [CAMK2D] | 1.0
IRGPAGNNDCRIYVGNLPPDIRTK [SRSF1] | 1.0
EKVLDQVETELQRRNEETPEEGQQ [GDAP1] | 1.0
LPDNYEIIDSSLEDITYVLKPTFT [USP39] | 0.0
AVATASRLGPYVLLEPEEGGRAYQ [TRIB3] | 1.0
GKWMKKFPESETKECPFRVNKVCG [SERPINB5] | 1.0
PADGWKGERPRSEEDNELNLPNLA [GCH1] | 1.0
TESEAHYSSQLSQVQSLITNVESQ [KRT34] | 1.0
QPLEVKNNSNLQRMGSSESTDSGF [CDC25A] | 1.0
LDREIRLQRLSHSGSRVRVGFRLC [SCNN1D] | 0.0
LPEAPPKKFLTLGSKFRYSGRTQA [EPB41L3] | 1.0
QLQHEKAELEQHLEQEQEFQVNKL [CCDC6] | 1.0
TELSFLVTTHQPTNLVLPSNGSMH [EDNRA] | 0.0
YKCAECGKSFCHSTHLTVHRRIHT [ZNF8] | 1.0
GPDNLVLLNPEKYKAKSRSPGSPV [ADD1] | 1.0
EPGKQERDVYLPAGKWRSYKGELF [MYORG] | 1.0
QVQSLITNVESQLAEIRCDLERQN [KRT34] | 1.0
SRQYDKFLTHFILMNDVIDTSGFP [FBXO33] | 0.0
VSSSQDGKVIVWDSFTTNKEHAVT [GNB5] | 1.0
LLATRIAVYLMTFLIVTVAWAAHT [TMEM175] | 1.0
